Origin of measurements: patent US9181236B2

The following compounds each carry a recorded Ki for soluble human BACE1 catalytic domain (Homo sapiens (Human)).
The response must be a number in nM with no trailing unit.

Record excerpt, results attached:
C[C@@]1(c2cc(NC(=O)c3ccc(Cl)cn3)ccc2F)CS(=O)(=O)[C@]2(CCOC2)C(=N)N1 [Example 62c]	8.1
C[C@@]1(c2sc(-c3ccnc(-c4ccsc4)c3)cc2Cl)CS(=O)(=O)[C@@]2(CCOC2)C(=N)N1 [Example 63n]	428
C[C@@]1(c2cc(NC(=O)c3cocn3)ccc2F)CS(=O)(=O)[C@]2(CCOC2)C(=N)N1 [Example 81c]	180
COc1cccc(NC(=O)c2cc(Cl)c([C@]3(C)CS(=O)(=O)C4(CCCCC4)C(=N)N3)s2)n1 [Example 80l]	207
C[C@@]1(c2sc(C(=O)NCc3cccc(F)c3)cc2Cl)CS(=O)(=O)C2(CCCCC2)C(=N)N1 [Example 80d]	5120

q: Which Ki is listed for CCc1cccc(NC(=O)c2cc(Cl)c([C@]3(C)CS(=O)(=O)C4(CC4)C(=N)N3)s2)n1 [Example 79] ?
a: 88

q: Which Ki is listed for COc1cnc(C(=O)Nc2ccc(F)c([C@]3(C)CS(=O)(=O)[C@]4(CCOC4)C(=N)N3)c2)cn1 [Example 62] ?
a: 25.4

q: Which Ki is listed for C[C@@]1(c2cc(NC(=O)c3cscn3)ccc2F)CS(=O)(=O)[C@]2(CCOC2)C(=N)N1 [Example 81u] ?
a: 433

q: Which Ki is listed for CC(=O)Nc1ccc(F)c([C@]2(C)CS(=O)(=O)[C@]3(CCOC3)C(=N)N2)c1 [Example 81x] ?
a: 1520

q: Which Ki is listed for C[C@@]1(c2cc(NC(=O)C3CCC3)ccc2F)CS(=O)(=O)[C@]2(CCOC2)C(=N)N1 [Example 81f] ?
a: 2080

====

The following compounds each carry a recorded Ki for soluble human BACE1 catalytic domain (Homo sapiens (Human), UniProt P56817).
The response must be a number in nM with no trailing unit.

Record excerpt, results attached:
C[C@@]1(c2sc(C(=O)NCc3ccc(C#N)cc3)cc2Cl)CS(=O)(=O)C2(CCCCC2)C(=N)N1 [Example 80f]	851
Cc1cncc(NC(=O)c2cc(Cl)c([C@]3(C)CS(=O)(=O)C4(CCCCC4)C(=N)N3)s2)c1 [Example 80g]	2160
COc1cccc2cc(-c3cc(Cl)c([C@]4(C)CS(=O)(=O)[C@@]5(CCOC5)C(=N)N4)s3)[nH]c12 [Example 63f]	14.2

q: Recall the recorded Ki for C[C@@]1(c2sc(C(=O)NCc3ccsn3)cc2Cl)CS(=O)(=O)C2(CCCCC2)C(=N)N1 [Example 80k] with soluble human BACE1 catalytic domain (Homo sapiens (Human), UniProt P56817) and state it.
Sequence (P56817 75-416): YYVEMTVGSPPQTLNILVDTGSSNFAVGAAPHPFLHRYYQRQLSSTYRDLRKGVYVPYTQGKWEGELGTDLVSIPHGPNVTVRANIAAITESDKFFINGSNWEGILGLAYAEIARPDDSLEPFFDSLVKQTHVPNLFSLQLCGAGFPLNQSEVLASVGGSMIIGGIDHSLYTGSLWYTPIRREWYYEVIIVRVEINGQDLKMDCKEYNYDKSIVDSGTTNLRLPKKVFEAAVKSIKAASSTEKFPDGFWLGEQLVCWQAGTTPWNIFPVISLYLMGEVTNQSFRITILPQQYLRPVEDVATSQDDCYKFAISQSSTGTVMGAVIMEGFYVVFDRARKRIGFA
a: 121

q: Recall the recorded Ki for C[C@@]1(c2sc(-c3cncc(-c4ncco4)c3)cc2Cl)CS(=O)(=O)[C@]2(CCOC2)C(=N)N1 [Example 62h] with soluble human BACE1 catalytic domain (Homo sapiens (Human), UniProt P56817) and state it.
a: 56.7

====

molecular target: purified human autoBACE-2 (Homo sapiens (Human), UniProt Q9Y5Z0)
Sequence (Q9Y5Z0 63-473 limits assumed): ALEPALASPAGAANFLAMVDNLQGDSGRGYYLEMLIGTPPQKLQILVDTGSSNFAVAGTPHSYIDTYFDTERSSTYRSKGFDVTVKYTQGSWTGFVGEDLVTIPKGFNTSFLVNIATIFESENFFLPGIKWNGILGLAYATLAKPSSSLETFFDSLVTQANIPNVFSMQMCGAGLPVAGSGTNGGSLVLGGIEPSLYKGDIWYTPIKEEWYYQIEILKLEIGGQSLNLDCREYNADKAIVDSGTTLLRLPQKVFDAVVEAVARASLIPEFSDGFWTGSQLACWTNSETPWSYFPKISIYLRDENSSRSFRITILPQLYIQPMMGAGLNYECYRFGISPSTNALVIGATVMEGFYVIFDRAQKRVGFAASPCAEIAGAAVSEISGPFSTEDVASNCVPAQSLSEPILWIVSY
Listed here are compounds together with their documented log10(Ki).
Would you kindly interpret these values as log10 of Ki expressed in nM?

Record excerpt, results attached:
COc1ccc(C(=O)Nc2ccc(F)c([C@]3(C)CS(=O)(=O)C4(CCCC4)C(=N)N3)c2)nc1	-0.22
COc1cccc2cc(-c3cc(Cl)c([C@]4(C)CS(=O)(=O)[C@@]5(CCOC5)C(=N)N4)s3)[nH]c12 [Example 63f]	0.18
C[C@@]1(c2cc(NC(=O)c3ccc(F)cn3)ccc2F)CS(=O)(=O)[C@@]2(CCOC2)C(=N)N1 [Example 63b]	0.43

q: Recall the recorded log10(Ki) for Cc1nc(C(=O)Nc2ccc(F)c([C@]3(C)CS(=O)(=O)C4(CCCC4)C(=N)N3)c2)no1 with purified human autoBACE-2 (Homo sapiens (Human), UniProt Q9Y5Z0) and state it.
a: 0.11

q: Recall the recorded log10(Ki) for C[C@@]1(c2cc(N)ccc2F)CS(=O)(=O)C2(CCOCC2)C(=N)N1 with purified human autoBACE-2 (Homo sapiens (Human), UniProt Q9Y5Z0) and state it.
a: 3.55

q: Recall the recorded log10(Ki) for C[C@@]1(c2cc(N)ccc2F)CS(=O)(=O)C2(CCCCC2)C(=N)N1 with purified human autoBACE-2 (Homo sapiens (Human), UniProt Q9Y5Z0) and state it.
a: 3.45

q: Recall the recorded log10(Ki) for C[C@@]1(c2cc(NC(=O)c3ccc(Cl)cn3)ccc2F)CS(=O)(=O)C2(CCOCC2)C(=N)N1 with purified human autoBACE-2 (Homo sapiens (Human), UniProt Q9Y5Z0) and state it.
a: 0.20
